System: DU-145 prostate
Test protocol: NCI tumour cell line growth inhibition, 48 h
Kindly supply the reported TGI values for the records listed here.
Give bare numbers, in µM.

Worked examples, 2 compounds total:
COc1ccc(C(SCCNCc2cc(N(C)C)ccn2)(c2ccccc2)c2ccccc2)cc1	12.8
Clc1ccc(-c2ccc(OCCCN3CCN(c4ccncc4)CC3)cc2)cc1	55.4

With those in mind, consider the next compound.
Query string: Output measured TGI for this item: Cn1cc(-c2cc3nc(-c4c[nH]c5ccccc45)cc(N)n3n2)c2cc(Cl)ccc21
Result string: 13.4

----------
Test system: MDA-MB-468 breast
Test protocol: NCI tumour cell line growth inhibition, 48 h
Observable: GI50

Worked examples, 8 molecules total:
COc1ccc(Cl)cc1Nc1nc(C(F)(F)F)ccc1C(=O)NN	3880 nM
C#Cc1nc(/C=C/C(=O)NO)cs1	1110 nM
COc1ccc(-c2cc(-c3ccc(Cl)cc3)c(C#N)c(=O)n2CCCCC(=O)Nc2ccccc2N)cc1	5680 nM
O=C1CCC(N2Cc3cc(CC(=O)Nc4ccc(N5CCCCC5)cc4)ccc3C2=O)C(=O)N1 (centres undefined)	< 10 nM
CCN(CCCCCCCCCCN1CC(=O)N(CCCCCCCCCCN(CC)Cc2ccccc2OC)CC1=O)Cc1ccccc1OC	1110 nM
C#C[C@]1(O)CC[C@H]2[C@@H]3CC=C4c5nc(Nc6ccccn6)sc5CC[C@]4(C)[C@H]3CC[C@@]21C	1620 nM
CC[C@H](C)[C@H](NC(=O)c1cnccn1)C(=O)N(C)[C@H](C[C@@H](OC(C)=O)c1nc(C(=O)N[C@@H](Cc2ccccc2)C[C@H](C)C(=O)OC)cs1)C(C)C	595 nM
COc1ccc(C(SCCNCc2cc(N(C)C)ccn2)(c2ccccc2)c2ccccc2)cc1	544 nM

With those in mind, consider the next molecule.
Query string: Output measured GI50 for this item: N=C(N)c1ccc(-c2ccc(-c3ccc(Cl)cc3Cl)o2)cc1
Result string: 1940 nM

Where do these numbers come from? They come from PubChem BioAssay (NCI).
